# viability, T/C values compiled below
System: KRAS-mutant PDC tumor spheroid with HUVEC/MSC, viability;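 further: spheroids exposed to agents for seven days before reading; 100% = DMSO vehicle wells so lower means fewer viable cells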
protocol: Anticancer human tumor 327498-153-R-J2-PDC patient-derived uterine carcinosarcoma cell line growth inhibition [KRAS2]
condition.set: second compound 0.316 µM; first compound 0.01 µM; active compounds read low

{"columns": ["compound", "viability, T/C"],
 "data": [
  ["Cn1ncnc1[C@H]1c2n[nH]c(=O)c3cc(F)cc(c23)N[C@@H]1c1ccc(F)cc1 + COc1cc2nc(C)nc(NC(C)c3cc(N)cc(C(F)(F)F)c3)c2cc1OC1CCOC1", "48.1%"],
  ["CC(=O)OC12COC1CC(O)C1(C)C(=O)C(O)C3=C(C)C(OC(=O)C(O)C(NC(=O)OC(C)(C)C)c4ccccc4)CC(O)(C(OC(=O)c4ccccc4)C21)C3(C)C (stereo not drawn) + COc1cc2nc(C)nc(NC(C)c3cc(N)cc(C(F)(F)F)c3)c2cc1OC1CCOC1", "7.68%"]
]}

In: Complete the entry with viability, T/C for CCN1CCN(Cc2ccc(Nc3ncc(F)c(-c4cc(F)c5nc(C)n(C(C)C)c5c4)n3)nc2)CC1 + CNCc1ccccc1-c1csc(C(C)Nc2nc(C)nc3cc(OC)c(OC)cc23)c1
Out: 52.8%
